I'd be grateful if you could share measured Ki for these entries.
- TEST SYSTEM: Adenosine receptor A3 (Homo sapiens, UniProt P0DMS8)
- MEASUREMENT DESCRIPTION: Displacement of [125I]AB-MECA from human adenosine A3 receptor transfected in CHO cells
Answer with the figure and its unit, nothing else.

Memo: Cc1ccccc1CNc1nc(Cl)nc2c1ncn2[C@@H]1S[C@H](C(=O)N2CCC(Cc3ccccc3)CC2)[C@@H](O)[C@H]1O , reported Ki: 49200 nM

Looking up CNc1nc(Cl)nc2c1ncn2[C@@H]1S[C@H](C(=O)N2CCC(Cc3ccccc3)CC2)[C@@H](O)[C@H]1O , I see its Ki listed as 3500 nM

Item: CNc1nc(Cl)nc2c1ncn2[C@@H]1S[C@H](C(=O)NCC2CC2)[C@@H](O)[C@H]1O | Ki: 1.1 nM

Lookup result for O=C([C@H]1S[C@@H](n2cnc3c(NCc4cccc(I)c4)nc(Cl)nc32)[C@H](O)[C@@H]1O)N1CCOCC1 ; measured Ki: 510 nM

====

- TEST SYSTEM: Adenosine receptor A1 (Homo sapiens) (UniProt P30542)
- Sequence (P30542 whole entry): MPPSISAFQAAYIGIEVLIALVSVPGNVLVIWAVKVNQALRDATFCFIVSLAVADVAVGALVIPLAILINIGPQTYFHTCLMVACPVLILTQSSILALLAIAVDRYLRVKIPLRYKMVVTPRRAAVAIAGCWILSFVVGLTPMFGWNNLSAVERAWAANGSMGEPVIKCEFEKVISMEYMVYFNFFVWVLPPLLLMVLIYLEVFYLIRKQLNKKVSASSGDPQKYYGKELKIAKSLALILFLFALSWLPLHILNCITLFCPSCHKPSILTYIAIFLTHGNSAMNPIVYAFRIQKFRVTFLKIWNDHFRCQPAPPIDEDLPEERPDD
- MEASUREMENT DESCRIPTION: Inhibition of [3H]R-PIA binding to human adenosine A1 receptor transfected in CHO cells at 10 uM
- Type: cell-based
Please respond with reported inhibition for every item in the list.
Respond with the figure and its unit, in that order.

Kindly note: Adenosine receptor A1 (Homo sapiens) (UniProt P30542), CNc1nc(Cl)nc2c1ncn2[C@@H]1S[C@H](C(=O)N(C)C)[C@@H](O)[C@H]1O , inhibition value reported: 10%

Known value: Adenosine receptor A1 (Homo sapiens) (UniProt P30542) inhibition of the compound O=C([C@H]1S[C@@H](n2cnc3c(NCc4cccc(I)c4)nc(Cl)nc32)[C@H](O)[C@@H]1O)N1CCN(c2ccc(F)cc2)CC1 equals 24%

Entry O=C(NCCc1ccccc1)[C@H]1S[C@@H](n2cnc3c(NCc4cccc(I)c4)nc(Cl)nc32)[C@H](O)[C@@H]1O : inhibition on Adenosine receptor A1 (Homo sapiens) (UniProt P30542) = 20%

Record CNc1nc(Cl)nc2c1ncn2[C@@H]1S[C@H](C(=O)N2CCOCC2)[C@@H](O)[C@H]1O ; system Adenosine receptor A1 (Homo sapiens) (UniProt P30542); inhibition = 4%

Simply: O=C(NCc1cccc(C(F)(F)F)c1)[C@H]1S[C@@H](n2cnc3c(NCc4cccc(I)c4)nc(Cl)nc32)[C@H](O)[C@@H]1O , Adenosine receptor A1 (Homo sapiens) (UniProt P30542), inhibition = 0%

Case CNc1nc(Cl)nc2c1ncn2[C@@H]1S[C@H](C(=O)NCCC(c2ccccc2)c2ccccc2)[C@@H](O)[C@H]1O , Adenosine receptor A1 (Homo sapiens) (UniProt P30542), inhibition recorded as 20%

The reported inhibition value, Adenosine receptor A1 (Homo sapiens) (UniProt P30542), for CNc1nc(Cl)nc2c1ncn2[C@@H]1S[C@H](C(=O)NCCc2cccc(F)c2)[C@@H](O)[C@H]1O reads 15%

====

Please provide measured inhibition for the entries that follow.
- TEST SYSTEM: Adenosine receptor A2a (Homo sapiens)
- Sequence (P29274 whole entry): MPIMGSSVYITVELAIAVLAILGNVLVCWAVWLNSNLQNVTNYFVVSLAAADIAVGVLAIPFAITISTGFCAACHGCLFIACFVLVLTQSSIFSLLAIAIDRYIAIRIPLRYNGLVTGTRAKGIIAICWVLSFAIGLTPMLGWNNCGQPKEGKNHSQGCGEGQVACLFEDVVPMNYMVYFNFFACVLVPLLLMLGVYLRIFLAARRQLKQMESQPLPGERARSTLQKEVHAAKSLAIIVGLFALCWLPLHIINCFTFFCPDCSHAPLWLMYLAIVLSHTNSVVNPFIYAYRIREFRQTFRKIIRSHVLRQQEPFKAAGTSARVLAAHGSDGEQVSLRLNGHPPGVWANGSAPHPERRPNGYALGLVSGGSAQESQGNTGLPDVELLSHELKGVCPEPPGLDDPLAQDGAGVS
- MEASUREMENT DESCRIPTION: Inhibition of [3H]CGS-21680 binding to human adenosine A2A receptor transfected in HEK293 cells at 10 uM
- Assay type: cell-based
Reply with just the number (in %).

inhibition reported for this molecule Cc1ccccc1CNc1nc(Cl)nc2c1ncn2[C@@H]1S[C@H](C(=O)N2CCOCC2)[C@@H](O)[C@H]1O : 17

The reported inhibition of the molecule O=C([C@H]1S[C@@H](n2cnc3c(NCc4cccc(I)c4)nc(Cl)nc32)[C@H](O)[C@@H]1O)N1CCN(c2ccc(F)cc2)CC1 was 12

For this molecule ( CNc1nc(Cl)nc2c1ncn2[C@@H]1S[C@H](C(=O)N2CCOCC2)[C@@H](O)[C@H]1O ), measured inhibition is 24

So, CNc1nc(Cl)nc2c1ncn2[C@@H]1S[C@H](C(=O)N2CCN(c3ccc(F)cc3)CC2)[C@@H](O)[C@H]1O ? Its inhibition was 34

For reference, reported inhibition for CC(C)CCNC(=O)[C@H]1S[C@@H](n2cnc3c(NCc4cccc(I)c4)nc(Cl)nc32)[C@H](O)[C@@H]1O stands at 31

Recorded inhibition (molecule CNc1nc(Cl)nc2c1ncn2[C@@H]1S[C@H](C(=O)NCCC(c2ccccc2)c2ccccc2)[C@@H](O)[C@H]1O ): 15

Input O=C([C@H]1S[C@@H](n2cnc3c(NC4CC4)nc(Cl)nc32)[C@H](O)[C@@H]1O)N1CCOCC1 . Output inhibition: 11

====

- TEST SYSTEM: Adenosine receptor A2a (Homo sapiens)
- MEASUREMENT DESCRIPTION: Inhibition of [3H]CGS-21680 binding to human adenosine A2A receptor transfected in HEK293 cells at 10 uM
- Type: cell-based
For each of the compounds below, state its inhibition.
# value in %; strip the unit string

// compound O=C(NCc1cccc(C(F)(F)F)c1)[C@H]1S[C@@H](n2cnc3c(NCc4cccc(I)c4)nc(Cl)nc32)[C@H](O)[C@@H]1O , assay Adenosine receptor A2a (Homo sapiens), inhibition value: 11

Given the compound O=C(NCCc1ccccc1)[C@H]1S[C@@H](n2cnc3c(NCc4cccc(I)c4)nc(Cl)nc32)[C@H](O)[C@@H]1O and test system Adenosine receptor A2a (Homo sapiens), the measured inhibition is 11

Tested on Adenosine receptor A2a (Homo sapiens): CNc1nc(Cl)nc2c1ncn2[C@@H]1S[C@H](C(=O)N(C)C)[C@@H](O)[C@H]1O . Observed inhibition: 12

Simply: CNc1nc(Cl)nc2c1ncn2[C@@H]1S[C@H](C(=O)NCCC(C)C)[C@@H](O)[C@H]1O , Adenosine receptor A2a (Homo sapiens), inhibition = 14

The compound CNc1nc(Cl)nc2c1ncn2[C@@H]1S[C@H](C(=O)NCc2cccc(F)c2)[C@@H](O)[C@H]1O , when measured on Adenosine receptor A2a (Homo sapiens), yielded inhibition of 41

Record CNc1nc(Cl)nc2c1ncn2[C@@H]1S[C@H](C(=O)NCC2CC2)[C@@H](O)[C@H]1O ; system Adenosine receptor A2a (Homo sapiens); inhibition = 44

Entry O=C([C@H]1S[C@@H](n2cnc3c(NC4CC4)nc(Cl)nc32)[C@H](O)[C@@H]1O)N1CCC(Cc2ccccc2)CC1 , Adenosine receptor A2a (Homo sapiens) data, inhibition value: 33

Sample Cc1ccccc1CNc1nc(Cl)nc2c1ncn2[C@@H]1S[C@H](C(=O)N2CCC(Cc3ccccc3)CC2)[C@@H](O)[C@H]1O , system: Adenosine receptor A2a (Homo sapiens). Its inhibition is 15

inhibition on Adenosine receptor A2a (Homo sapiens) for CNC(=O)[C@H]1S[C@@H](n2cnc3c(NC)nc(Cl)nc32)[C@H](O)[C@@H]1O is 20

The measured inhibition that O=C(NCc1cccc(Cl)c1)[C@H]1S[C@@H](n2cnc3c(NCc4cccc(I)c4)nc(Cl)nc32)[C@H](O)[C@@H]1O showed for Adenosine receptor A2a (Homo sapiens) is 28

Summary: O=C([C@H]1S[C@@H](n2cnc3c(NCc4cccc(I)c4)nc(Cl)nc32)[C@H](O)[C@@H]1O)N1CCC(Cc2ccccc2)CC1 , Adenosine receptor A2a (Homo sapiens), inhibition = 17

Known value: Adenosine receptor A2a (Homo sapiens) inhibition of the compound CNc1nc(Cl)nc2c1ncn2[C@@H]1S[C@H](C(=O)NCCc2cccc(F)c2)[C@@H](O)[C@H]1O equals 30

Adenosine receptor A2a (Homo sapiens) assay, compound CNc1nc(Cl)nc2c1ncn2[C@@H]1S[C@H](C(=O)N2CCC(Cc3ccccc3)CC2)[C@@H](O)[C@H]1O , recorded inhibition = 6

Field inhibition (system: Adenosine receptor A2a (Homo sapiens)) for entry Cc1ccccc1CNc1nc(Cl)nc2c1ncn2[C@@H]1S[C@H](C(=O)N(C)C)[C@@H](O)[C@H]1O = 22.5

inhibition of O=C([C@H]1S[C@@H](n2cnc3c(NCc4cccc(I)c4)nc(Cl)nc32)[C@H](O)[C@@H]1O)N1CCOCC1 , assay on Adenosine receptor A2a (Homo sapiens), is 4

Item: O=C(NCCC(c1ccccc1)c1ccccc1)[C@H]1S[C@@H](n2cnc3c(NCc4cccc(I)c4)nc(Cl)nc32)[C@H](O)[C@@H]1O | System: Adenosine receptor A2a (Homo sapiens) | inhibition: 3

====

- TEST SYSTEM: Adenosine receptor A3 (Homo sapiens)
- Sequence (P0DMS8 whole entry): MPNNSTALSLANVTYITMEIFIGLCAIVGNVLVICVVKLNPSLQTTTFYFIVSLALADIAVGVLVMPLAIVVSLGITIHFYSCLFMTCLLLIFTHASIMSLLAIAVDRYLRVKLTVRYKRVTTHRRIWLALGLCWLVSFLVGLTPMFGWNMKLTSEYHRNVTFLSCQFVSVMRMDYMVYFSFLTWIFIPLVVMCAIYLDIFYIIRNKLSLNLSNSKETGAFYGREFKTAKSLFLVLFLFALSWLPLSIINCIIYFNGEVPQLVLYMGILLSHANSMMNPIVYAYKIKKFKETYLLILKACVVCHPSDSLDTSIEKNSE
- MEASUREMENT DESCRIPTION: Displacement of [125I]AB-MECA from human adenosine A3 receptor transfected in CHO cells
Could you please report measured log10(Ki) for the items listed next?
Quick note: numbers are log10 of Ki, with nM as the unit.

Recorded log10(Ki) for O=C(NC1CCC1)[C@H]1S[C@@H](n2cnc3c(NCc4cccc(I)c4)nc(Cl)nc32)[C@H](O)[C@@H]1O on Adenosine receptor A3 (Homo sapiens) was 1.26

Measured log10(Ki) for this entry O=C(NC1CC1)[C@H]1S[C@@H](n2cnc3c(NC4CC4)nc(Cl)nc32)[C@H](O)[C@@H]1O on Adenosine receptor A3 (Homo sapiens): 0.75

Given the molecule CNc1nc(Cl)nc2c1ncn2[C@@H]1S[C@H](C(=O)N2CCN(c3ccc(F)cc3)CC2)[C@@H](O)[C@H]1O and test system Adenosine receptor A3 (Homo sapiens), the measured log10(Ki) is 3.43

Kindly note: Adenosine receptor A3 (Homo sapiens), Cc1ccccc1CNc1nc(Cl)nc2c1ncn2[C@@H]1S[C@H](C(=O)NCC2CC2)[C@@H](O)[C@H]1O , log10(Ki) value reported: 1.47

log10(Ki) for Adenosine receptor A3 (Homo sapiens) with input CNC(=O)[C@H]1S[C@@H](n2cnc3c(NCc4ccccc4C)nc(Cl)nc32)[C@H](O)[C@@H]1O equals 0.34

Tested system Adenosine receptor A3 (Homo sapiens); log10(Ki) recorded for CCNC(=O)[C@H]1S[C@@H](n2cnc3c(NC4CC4)nc(Cl)nc32)[C@H](O)[C@@H]1O was -0.17

Entry O=C(NCc1cccc(Cl)c1)[C@H]1S[C@@H](n2cnc3c(NCc4cccc(I)c4)nc(Cl)nc32)[C@H](O)[C@@H]1O : log10(Ki) on Adenosine receptor A3 (Homo sapiens) = 2.49

Measured log10(Ki) for this entry O=C(NCC1CC1)[C@H]1S[C@@H](n2cnc3c(NCc4cccc(I)c4)nc(Cl)nc32)[C@H](O)[C@@H]1O on Adenosine receptor A3 (Homo sapiens): 0.56
